target: Cytochrome P450 1A2 (Homo sapiens); experiment: Reversible inhibition of CYP1A2 in human liver microsomes using phenacetin as substrate by LC/MS/MS analysis; type: ADME, Microsome
Sequence (P05177 whole entry): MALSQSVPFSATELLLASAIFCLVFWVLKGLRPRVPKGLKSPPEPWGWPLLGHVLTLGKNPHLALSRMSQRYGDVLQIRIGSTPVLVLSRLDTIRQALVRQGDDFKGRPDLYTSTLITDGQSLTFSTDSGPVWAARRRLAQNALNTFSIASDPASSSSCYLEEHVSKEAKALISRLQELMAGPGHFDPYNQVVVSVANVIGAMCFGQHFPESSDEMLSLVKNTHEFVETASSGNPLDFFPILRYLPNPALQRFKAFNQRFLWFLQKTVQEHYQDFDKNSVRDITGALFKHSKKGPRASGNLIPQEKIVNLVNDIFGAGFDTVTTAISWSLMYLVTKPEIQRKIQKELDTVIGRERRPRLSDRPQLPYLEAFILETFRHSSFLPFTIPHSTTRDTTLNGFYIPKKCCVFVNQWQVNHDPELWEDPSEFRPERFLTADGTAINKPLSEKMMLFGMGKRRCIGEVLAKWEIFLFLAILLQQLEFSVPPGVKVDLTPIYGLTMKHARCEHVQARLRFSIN
Readings of IC50 for the listed molecules
measured endpoint: IC50

INSERT INTO results (chemical_smiles, measured_endpoint, result) VALUES
  ('C[C@@H](O)c1nc2cnc3[nH]ccc3c2n1[C@H]1CC[C@H](CCC#N)CC1', 'IC50', '> 10 µM'),
  ('C[C@@H](O)c1nc2cnc3[nH]ccc3c2n1[C@H]1CC[C@H](NCC(F)(F)F)CC1', 'IC50', '> 10 µM');

----------
molecular target: Tyrosine-protein kinase JAK1 (Homo sapiens, UniProt P23458)
Sequence (P23458 whole entry): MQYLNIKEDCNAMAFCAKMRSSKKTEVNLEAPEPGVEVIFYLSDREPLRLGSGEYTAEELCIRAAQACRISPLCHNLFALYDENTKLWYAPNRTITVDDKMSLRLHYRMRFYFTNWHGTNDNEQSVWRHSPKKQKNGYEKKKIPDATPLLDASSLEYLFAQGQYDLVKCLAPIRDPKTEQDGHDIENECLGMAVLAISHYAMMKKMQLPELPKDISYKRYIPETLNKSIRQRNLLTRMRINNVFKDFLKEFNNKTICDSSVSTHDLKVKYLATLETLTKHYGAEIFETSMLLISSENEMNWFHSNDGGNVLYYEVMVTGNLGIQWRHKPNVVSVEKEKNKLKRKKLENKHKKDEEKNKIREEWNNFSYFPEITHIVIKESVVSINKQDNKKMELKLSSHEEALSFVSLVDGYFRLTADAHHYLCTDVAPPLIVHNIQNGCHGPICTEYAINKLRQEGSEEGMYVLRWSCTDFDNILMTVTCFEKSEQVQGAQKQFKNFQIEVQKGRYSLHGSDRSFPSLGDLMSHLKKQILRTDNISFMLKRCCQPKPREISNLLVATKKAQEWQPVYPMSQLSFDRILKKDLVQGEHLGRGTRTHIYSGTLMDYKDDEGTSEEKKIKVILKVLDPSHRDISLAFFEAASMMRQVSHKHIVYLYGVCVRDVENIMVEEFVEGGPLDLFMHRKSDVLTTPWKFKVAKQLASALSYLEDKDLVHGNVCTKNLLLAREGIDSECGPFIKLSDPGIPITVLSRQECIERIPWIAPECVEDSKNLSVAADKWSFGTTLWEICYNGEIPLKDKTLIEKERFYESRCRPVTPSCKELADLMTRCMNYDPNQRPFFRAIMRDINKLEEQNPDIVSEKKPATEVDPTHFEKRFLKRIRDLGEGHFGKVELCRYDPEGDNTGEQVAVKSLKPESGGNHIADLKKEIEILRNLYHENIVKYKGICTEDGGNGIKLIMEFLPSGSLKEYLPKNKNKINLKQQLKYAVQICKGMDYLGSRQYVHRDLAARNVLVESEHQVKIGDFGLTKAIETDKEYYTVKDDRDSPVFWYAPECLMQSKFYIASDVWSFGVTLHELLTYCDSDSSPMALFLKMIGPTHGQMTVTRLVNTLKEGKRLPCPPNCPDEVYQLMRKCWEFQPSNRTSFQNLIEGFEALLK
pEC50: −log10 of the molar value.
Rule: pEC50 of 7 or more gives y; anything lower gives n.

INSERT INTO assay_data (compound, label_class) VALUES
  ('CCN1CCC(n2c([C@@H](C)O)nc3cnc4[nH]ccc4c32)C(F)(F)C1 (stereo partly specified)', 'n'),
  ('C[C@@H](O)c1nc2cnc3[nH]ccc3c2n1[C@H]1CC[C@H](CC#N)CC1', 'y'),
  ('OCCc1nc2cnc3[nH]ccc3c2n1C1CCCCC1', 'n'),
  ('C[C@@H](O)c1nc2cnc3[nH]ccc3c2n1[C@H]1CC[C@H](O)CC1', 'n'),
  ('C[C@@H](O)c1nc2cnc3[nH]ccc3c2n1C1CCN(CC(F)(F)F)CC1', 'n'),
  ('OCc1nc2cnc3[nH]ccc3c2n1C1CCCCC1', 'n'),
  ('C[C@@H](O)c1nc2cnc3[nH]ccc3c2n1[C@H]1CC[C@@H](NCC(F)(F)F)C1', 'y'),
  ('OC[C@@H](O)c1nc2cnc3[nH]ccc3c2n1C1CCCCC1', 'n');

----------
Target or system Tyrosine-protein kinase JAK1 (Homo sapiens, UniProt P23458); recorded quantity EC50.
measured endpoint: EC50 (µM)

INSERT INTO assay_data (molecule, readout_number) VALUES
  ('C[C@@H](O)c1nc2cnc3[nH]ccc3c2n1[C@H]1CC[C@H](O)CC1', 0.41),
  ('OC[C@@H](O)c1nc2cnc3[nH]ccc3c2n1C1CCCCC1', 0.069),
  ('CCN1CCC(n2c([C@@H](C)O)nc3cnc4[nH]ccc4c32)C(F)(F)C1 (stereo not given in full)', 0.088),
  ('OC[C@H](O)c1nc2cnc3[nH]ccc3c2n1C1CCCCC1', 0.32),
  ('C[C@@H](O)c1nc2cnc3[nH]ccc3c2n1[C@H]1CC[C@H](NCC(F)(F)F)CC1', 0.028);

----------
experiment: Metabolic stability in rat hepatocytes assessed as hepatic clearance; type: ADME, cell-based, Liver, Hepatocyte
Readings of log10 of CLhep predicted for the listed compounds
measured endpoint: log10 of CLhep predicted (log10 of the value in mL/min/kg)

INSERT INTO assay_data (chemical_smiles, measured_endpoint, readout_number) VALUES
  ('C[C@@H](O)c1nc2cnc3[nH]ccc3c2n1[C@H]1CC[C@H](CCC#N)CC1', 'log10 of CLhep predicted', 1.45),
  ('C[C@@H](O)c1nc2cnc3[nH]ccc3c2n1[C@H]1CC[C@@H](NCC(F)(F)F)C1', 'log10 of CLhep predicted', 1.15),
  ('C[C@@H](O)c1nc2cnc3[nH]ccc3c2n1[C@H]1CC[C@H](NCC(F)(F)F)CC1', 'log10 of CLhep predicted', 1.04),
  ('C[C@@H](O)c1nc2cnc3[nH]ccc3c2n1[C@H]1CCCOC1', 'log10 of CLhep predicted', 0.36),
  ('C[C@@H](O)c1nc2cnc3[nH]ccc3c2n1[C@H]1CC[C@H](CC#N)CC1', 'log10 of CLhep predicted', 1.18),
  ('C[C@@H](O)c1nc2cnc3[nH]ccc3c2n1[C@H]1CC[C@H](C#N)CC1', 'log10 of CLhep predicted', 0.57);

----------
target: UniProt P23458
measured endpoint: EC50 (nM)

INSERT INTO assay_data (chemical_smiles, measured_endpoint, unit_name, readout_number) VALUES
  ('C[C@@H](O)c1nc2cnc3[nH]ccc3c2n1[C@H]1CC[C@H](C#N)CC1', 'EC50', 'nM', 120),
  ('C[C@@H](O)c1nc2cnc3[nH]ccc3c2n1[C@@H]1CCC[C@@H](O)C1', 'EC50', 'nM', 120),
  ('C[C@@H](O)c1nc2cnc3[nH]ccc3c2n1C1CCN(CCC#N)CC1', 'EC50', 'nM', 510),
  ('C[C@@H](O)c1nc2cnc3[nH]ccc3c2n1[C@H]1CC[C@H](NCC(F)(F)F)C1', 'EC50', 'nM', 74),
  ('C[C@@H](O)c1nc2cnc3[nH]ccc3c2n1C1CCN(CC(F)(F)F)CC1', 'EC50', 'nM', 110),
  ('C[C@@H](O)c1nc2cnc3[nH]ccc3c2n1[C@H]1CC[C@@H](O)CC1', 'EC50', 'nM', 380),
  ('C[C@@H](O)c1nc2cnc3[nH]ccc3c2n1[C@H]1CC[C@@H](NCC(F)(F)F)C1', 'EC50', 'nM', 70),
  ('C[C@@H](O)c1nc2cnc3[nH]ccc3c2n1[C@@H]1CCCN(C(=O)CC#N)C1', 'EC50', 'nM', 8200),
  ('C[C@@H](O)c1nc2cnc3[nH]ccc3c2n1[C@H]1CC[C@H](NCC(F)F)CC1', 'EC50', 'nM', 57);

----------
experiment: AUC in Lewis rat collagen-induced arthritis model at 100 mg/kg, po administered on day 20; format: ADME, organism-based; design: dose 100 mg/kg, route oral; settings: in vivo
measured endpoint: AUC (µM·h)

INSERT INTO assay_data (chemical_smiles, measured_endpoint, readout_number) VALUES
  ('C[C@@H](O)c1nc2cnc3[nH]ccc3c2n1[C@H]1CC[C@H](C#N)CC1', 'AUC', 50.1);

----------
assay: Hepatic clearance in human liver microsomes by LC/MS/MS analysis; format: ADME, Microsome
Readings of CLhep predicted for the listed molecules
measured endpoint: CLhep predicted

INSERT INTO assay_data (molecule, result) VALUES
  ('C[C@@H](O)c1nc2cnc3[nH]ccc3c2n1[C@H]1CC[C@H](C#N)CC1', '3.3 mL/min/kg'),
  ('OCc1nc2cnc3[nH]ccc3c2n1C1CCCCC1', '5.6 mL/min/kg'),
  ('C[C@@H](O)c1nc2cnc3[nH]ccc3c2n1[C@H]1CCCOC1', '2 mL/min/kg'),
  ('C[C@@H](O)c1nc2cnc3[nH]ccc3c2n1[C@H]1CC[C@H](CCC#N)CC1', '5.2 mL/min/kg'),
  ('C[C@@H](O)c1nc2cnc3[nH]ccc3c2n1[C@H]1CC[C@H](CC#N)CC1', '5.2 mL/min/kg'),
  ('C[C@@H](O)c1nc2cnc3[nH]ccc3c2n1[C@H]1CC[C@@H](C#N)CC1', '4.3 mL/min/kg'),
  ('C[C@@H](O)c1nc2cnc3[nH]ccc3c2n1[C@@H]1CCCN(C(=O)CC(F)(F)F)C1', '5.2 mL/min/kg'),
  ('C[C@@H](O)c1nc2cnc3[nH]ccc3c2n1[C@H]1CC[C@H](NCC(F)(F)F)C1', '5.6 mL/min/kg'),
  ('C[C@@H](O)c1nc2cnc3[nH]ccc3c2n1[C@H]1CC[C@H](O)CC1', '1.9 mL/min/kg'),
  ('C[C@@H](O)c1nc2cnc3[nH]ccc3c2n1C1CCN(CCC#N)CC1', '4.2 mL/min/kg'),
  ('OCCc1nc2cnc3[nH]ccc3c2n1C1CCCCC1', '5.3 mL/min/kg'),
  ('CCN1CCC(n2c([C@@H](C)O)nc3cnc4[nH]ccc4c32)C(F)(F)C1 (stereo not given in full)', '2.9 mL/min/kg'),
  ('C[C@@H](O)c1nc2cnc3[nH]ccc3c2n1C1CCN(CC(F)(F)F)CC1', '9.2 mL/min/kg'),
  ('C[C@@H](O)c1nc2cnc3[nH]ccc3c2n1[C@@H]1CCCN(C(=O)CC#N)C1', '1 mL/min/kg'),
  ('OC[C@@H](O)c1nc2cnc3[nH]ccc3c2n1C1CCCCC1', '1.8 mL/min/kg'),
  ('C[C@@H](O)c1nc2cnc3[nH]ccc3c2n1[C@H]1CC[C@@H](NCC(F)(F)F)CC1', '18 mL/min/kg'),
  ('CO[C@H]1CC[C@H](n2c([C@@H](C)O)nc3cnc4[nH]ccc4c32)CC1', '1.3 mL/min/kg'),
  ('C[C@@H](O)c1nc2cnc3[nH]ccc3c2n1[C@@H]1CCCOC1', '4.6 mL/min/kg'),
  ('C[C@@H](O)c1nc2cnc3[nH]ccc3c2n1[C@H]1CC[C@H](NCC(F)(F)F)CC1', '3.3 mL/min/kg'),
  ('C[C@@H](O)c1nc2cnc3[nH]ccc3c2n1[C@H]1CC[C@@H](NCC(F)(F)F)C1', '3.8 mL/min/kg');
